Measured values drawn from patent US10975119B2 for this set.

test target: Caspase-4 (Homo sapiens, UniProt P49662)
Construct: mixing the compounds with the respective active caspases; purchased BioVision K154-100
Sequence (P49662 81-270 limits assumed): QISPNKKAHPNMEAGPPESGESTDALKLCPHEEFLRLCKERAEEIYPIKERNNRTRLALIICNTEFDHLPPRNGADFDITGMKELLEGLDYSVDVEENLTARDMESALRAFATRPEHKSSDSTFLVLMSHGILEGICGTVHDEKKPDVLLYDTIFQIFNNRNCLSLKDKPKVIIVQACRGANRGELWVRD
Sequence (P49662 290-377 limits assumed): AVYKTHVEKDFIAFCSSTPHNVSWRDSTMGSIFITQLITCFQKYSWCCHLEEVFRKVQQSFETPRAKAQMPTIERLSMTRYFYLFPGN
experiment notes: Caspase-4 inhibitor screening assay (BioVision kit, LEVD-AFC)
Format: biochemical
condition label: read-out: % Inhibition at 10 uM Casp4
Measured inhibition at 10 µM, listed per entry.
Give the number; % is assumed, so skip it.

Check out these entries, answers already filled in.
CCOC(=O)/C=C/[C@H](CC(=O)O)NC(=O)[C@H]1CCCN1C(=O)[C@@H](NC(=O)c1ccc2ccccc2n1)C(C)(C)C: 100
CC(C)[C@H](NC(=O)[C@H](Cc1cn(C)c2ccccc12)NC(=O)[C@H](CC(=O)O)NC(=O)OCc1ccccc1)C(=O)N[C@H](/C=C/S(C)(=O)=O)CC(=O)O: 57

Checklist item: inhibition at 10 µM tested on Caspase-4 (Homo sapiens, UniProt P49662), entry CC(C)(C)[C@H](NC(=O)c1ccc2ncccc2n1)C(=O)N1CCCC1C(=O)N[C@H](/C=C/S(C)(=O)=O)CC(=O)O (stereo in doubt) , value?
88

----------
test target: Caspase-10 (Homo sapiens, UniProt Q92851)
Construct: mixing the compounds with the respective active caspases; purchased BioVision K160-100
Sequence (Q92851 220-415 limits assumed): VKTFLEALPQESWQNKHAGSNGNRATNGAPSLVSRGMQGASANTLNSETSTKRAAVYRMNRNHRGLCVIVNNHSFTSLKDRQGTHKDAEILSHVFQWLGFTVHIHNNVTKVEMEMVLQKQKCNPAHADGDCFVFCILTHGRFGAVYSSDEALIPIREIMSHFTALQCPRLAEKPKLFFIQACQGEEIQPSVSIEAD
Sequence (Q92851 416-521 limits assumed): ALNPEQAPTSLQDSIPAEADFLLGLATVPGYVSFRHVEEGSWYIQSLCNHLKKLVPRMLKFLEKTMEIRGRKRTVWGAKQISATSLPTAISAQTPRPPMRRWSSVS
experiment notes: Caspase-10 inhibitor screening assay (BioVision kit, AEVD-AFC)
Type: biochemical
condition label: read-out: IC50 Casp10
Excerpt: […]
// returns NO unless IC50 is strictly below 0.6 µM, in which case YES

Recorded results for 10 molecules are shown here.
CCOC(=O)/C=C/[C@H](CC(=O)O)NC(=O)[C@H]1CCCN1C(=O)[C@@H](NC(=O)c1ccc2ccccc2n1)C(C)(C)C [Compound 118]: NO
CC(C)[C@H](NC(=O)OCc1ccccc1)C(=O)N[C@H](/C=C(\Cl)S(C)(=O)=O)CC(=O)O [Compound 2]: NO
CS(=O)(=O)/C=C/[C@H](CC(=O)O)NC(=O)[C@H]1CCC(=O)N1 [Compound 24]: NO
CS(=O)(=O)/C=C/[C@H](CC(=O)O)NC(=O)[C@H]1CCCN1C(=O)[C@@H](NC(=O)[C@H](CC(=O)O)NC(=O)OCc1ccccc1)c1ccccc1 [Compound 30]: NO
CC(C)(C)[C@H](NC(=O)c1ccc2ncccc2c1)C(=O)N1CCCC1C(=O)N[C@H](/C=C/S(C)(=O)=O)CC(=O)O (stereo in doubt) [Compound 10]: NO
CCOC(=O)/C=C/[C@H](CC(=O)O)NC(=O)[C@@H](NC(=O)[C@H](CCC(=O)O)NC(=O)[C@@H](NC(=O)OCc1ccccc1)C(C)C)C(C)CC (stereo partly drawn) [Compound 124, Z-Val-Glu-Ile-Asp-Ethyl Vinyl ester]: YES
CC(C)[C@H](NC(=O)c1ccc2ccccc2n1)C(=O)N[C@H](/C=C/S(C)(=O)=O)CC(=O)O [Compound 16]: NO
CC(C)(C)[C@H](NC(=O)c1ccc(N)c(Cl)c1)C(=O)N1CCCC1C(=O)N[C@H](/C=C/S(C)(=O)=O)CC(=O)O (stereo in doubt) [Compound 14]: NO
CS(=O)(=O)/C(Cl)=C/[C@@H](N)CC(=O)O [Compound 4]: NO
CCC(C)[C@H](NC(=O)[C@H](CCC(=O)O)NC(=O)[C@@H](NC(=O)OCc1ccccc1)C(C)C)C(=O)N[C@H](/C=C(\Cl)S(C)(=O)=O)CC(=O)O (stereo partly drawn) [Compound 123]: YES

Next:
Given the entry CS(=O)(=O)/C=C/[C@H](CC(=O)O)NC(=O)[C@@H](N)CCC(=O)O [Compound 22, Glu-Asp methylsulfone] , would its reported IC50 be below 0.6 µM?
NO

----------
test target: Caspase-6 (Homo sapiens, UniProt P55212)
Construct: mixing the compounds with the respective active caspases; purchased BioVision K156-100
Sequence (P55212 24-179 limits assumed): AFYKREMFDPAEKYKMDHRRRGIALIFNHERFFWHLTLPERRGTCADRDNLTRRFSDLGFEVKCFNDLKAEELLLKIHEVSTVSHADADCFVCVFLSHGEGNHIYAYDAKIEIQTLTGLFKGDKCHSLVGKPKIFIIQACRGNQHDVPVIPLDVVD
Sequence (P55212 194-293 limits assumed): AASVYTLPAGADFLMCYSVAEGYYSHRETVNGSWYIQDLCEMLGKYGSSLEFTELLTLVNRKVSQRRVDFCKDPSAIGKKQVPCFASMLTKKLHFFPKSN
experiment notes: Caspase-6 inhibitor screening assay (BioVision kit, VEID-AFC)
Format: biochemical
condition label: read-out: IC50 Casp6
The following molecules are shown together with reported IC50 values.

# annotated cases, reported IC50 shown
CC(C)[C@H](NC(=O)[C@H](Cc1cn(C)c2ccccc12)NC(=O)[C@H](CC(=O)O)NC(=O)OCc1ccccc1)C(=O)N[C@H](/C=C/S(C)(=O)=O)CC(=O)O [Compound 36]: > 100 µM
CC(C)[C@H](NC(=O)OCc1ccccc1)C(=O)N[C@H](/C=C/S(C)(=O)=O)CC(=O)O [Compound 3, Z-Val-Asp methyl vinyl sulfone]: > 100 µM

// moving on: another record for IC50
Field request: IC50 | item: CC(C)(C)OC(=O)CC[C@H](NC(=O)OC(C)(C)C)C(=O)N[C@H](/C=C/S(C)(=O)=O)CC(=O)OC(C)(C)C [Compound 21]
> 100 µM

----------
Catalogue of inhibition at 10 µM values
test target: Caspase-6 (Homo sapiens)
Construct: mixing the compounds with the respective active caspases; purchased BioVision K156-100
experiment notes: Caspase-6 inhibitor screening assay (BioVision kit, VEID-AFC)
Format: biochemical
condition label: read-out: % Inhibition at 10 uM Casp6
The answer should read as a number with its unit following.

CC(C)[C@H](NC(=O)[C@@H](N)Cc1ccc(O)cc1)C(=O)N[C@@H](C)C(=O)N[C@H](/C=C/S(C)(=O)=O)CC(=O)O: 6%
CS(=O)(=O)/C=C/[C@H](CC(=O)O)NC(=O)[C@@H](N)CCC(=O)O: 1%

From here, focus on the item given below.
Query the reported inhibition at 10 µM for Caspase-6 (Homo sapiens); item: CC(C)(C)[C@H](NC(=O)c1ccc2ncccc2c1)C(=O)N1CCCC1C(=O)N[C@H](/C=C/S(C)(=O)=O)CC(=O)O (stereo in doubt)
0%

----------
test target: Caspase-6 (Homo sapiens)
Construct: mixing the compounds with the respective active caspases; purchased BioVision K156-100
experiment notes: Caspase-6 inhibitor screening assay (BioVision kit, VEID-AFC)
Type: biochemical
condition label: read-out: IC50 Casp6
pIC50: −log10 of the molar value.
recorded endpoint: pIC50

Before answering, review these 3 worked examples.
CS(=O)(=O)/C=C/[C@H](CC(=O)O)NC(=O)[C@H]1CCCN1C(=O)[C@@H](NC(=O)[C@H](CC(=O)O)NC(=O)OCc1ccccc1)c1ccccc1 [Compound 30]: < 4.00
CCOC(=O)/C(Cl)=C/[C@H](CC(=O)O)NC(=O)[C@H]1CCCN1C(=O)[C@@H](NC(=O)c1ccc(N)c(Cl)c1)C(C)(C)C [Compound 117]: < 4.00
CC(C)[C@H](NC(=O)OCc1ccccc1)C(=O)N[C@H](/C=C(\Cl)S(C)(=O)=O)CC(=O)O [Compound 2]: < 4.00

// query pIC50 value for entry CCC(C)[C@H](NC(=O)[C@H](CCC(=O)O)NC(=O)[C@@H](NC(=O)OCc1ccccc1)C(C)C)C(=O)N[C@H](/C=C/S(C)(=O)=O)CC(=O)O (stereo partly drawn) [Compound 38, Z-Val-Glu-Ile-Asp-methyl vinyl sulfone]
6.22

Given the entry CC(C)[C@H](NC(=O)c1ccc2ccccc2n1)C(=O)N[C@H](/C=C/S(C)(=O)=O)CC(=O)O [Compound 16] , report its measured pIC50.
< 4.00

Which pIC50 value belongs to CCOC(=O)/C=C/[C@H](CC(=O)O)NC(=O)[C@@H](NC(=O)[C@H](CCC(=O)O)NC(=O)[C@@H](NC(=O)OCc1ccccc1)C(C)C)c1ccccc1 [Compound 126, Z-Val-Glu-Phg-Asp-Ethyl Vinyl ester] ?
6.32

What does the record list as pIC50 for CC(C)(C)[C@H](NC(=O)[C@H](CC(=O)O)NC(=O)OCc1ccccc1)C(=O)N1CCCC1C(=O)N[C@H](/C=C/S(C)(=O)=O)CC(=O)O (stereo in doubt) [Compound 26, Z-Asp-t-Leu-Pro-Asp-methyl vinyl sulfone] ?
< 4.00

GET /values?readout=pIC50&item= CC(C)[C@H](NC(=O)[C@@H](NC(=O)[C@H](CC(=O)O)NC(=O)OCc1ccccc1)c1ccccc1)C(=O)N[C@H](/C=C/S(C)(=O)=O)CCC(=O)O [Compound 84, Z-Asp-Phg-Val-Glu methyl vinyl sulfone]
< 4.00

Entry under review: CCOC(=O)/C=C/[C@H](CC(=O)O)NC(=O)[C@@H](NC(=O)[C@H](CCC(=O)O)NC(=O)[C@@H](NC(=O)OCc1ccccc1)C(C)C)C(C)CC (stereo partly drawn) [Compound 124, Z-Val-Glu-Ile-Asp-Ethyl Vinyl ester] . Reported pIC50?
6.54

Could you tell me which pIC50 is on file for CS(=O)(=O)/C(Cl)=C/[C@@H](N)CC(=O)O [Compound 4] ?
< 4.00

----------
test target: Caspase-5 (Homo sapiens, UniProt P51878)
Construct: mixing the compounds with the respective active caspases; purchased BioVision K155-100
Sequence (P51878 137-327 limits assumed): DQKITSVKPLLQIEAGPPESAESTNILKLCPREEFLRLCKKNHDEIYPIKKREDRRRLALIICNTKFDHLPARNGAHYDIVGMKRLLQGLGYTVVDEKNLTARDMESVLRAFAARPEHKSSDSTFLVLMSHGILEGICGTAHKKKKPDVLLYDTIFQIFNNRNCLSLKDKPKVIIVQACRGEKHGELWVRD
Sequence (P51878 347-434 limits assumed): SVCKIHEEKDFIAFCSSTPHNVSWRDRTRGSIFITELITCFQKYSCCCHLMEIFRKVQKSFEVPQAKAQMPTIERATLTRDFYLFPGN
experiment notes: Caspase-5 inhibitor screening assay (BioVision kit, WEHD-AFC)
Assay type: biochemical
condition label: read-out: % Inhibition at 10 uM Casp5
Structures can show the parent of a compound that is named as a salt.
Label YES when inhibition at 10 µM is at or above 10%; otherwise label NO.

Completed entries (count: 8):
CC(C)(C)[C@@H](NC(=O)[C@H](CC(=O)O)NC(=O)OCc1ccccc1)C(=O)N1CC[C@@H]1C(=O)N[C@H](/C=C/S(C)(=O)=O)CC(=O)O: YES
CC(C)(C)[C@H](NC(=O)c1ccc2ccccc2n1)C(=O)N1CC[C@@H]1C(=O)N[C@H](/C=C/S(C)(=O)=O)CC(=O)O: YES
CCC(C)[C@H](NC(=O)[C@H](CCC(=O)O)NC(=O)[C@@H](NC(=O)OCc1ccccc1)C(C)C)C(=O)N[C@H](/C=C/S(C)(=O)=O)CC(=O)O (some centres unmarked): YES
CC(C)(C)[C@H](NC(=O)c1ccc2ncccc2n1)C(=O)N1CCCC1C(=O)N[C@H](/C=C/S(C)(=O)=O)CC(=O)O (stereo in doubt): YES
CC(C)[C@H](NC(=O)[C@H](Cc1cn(C)c2ccccc12)NC(=O)[C@H](CC(=O)O)NC(=O)OCc1ccccc1)C(=O)N[C@H](/C=C/S(C)(=O)=O)CC(=O)O: YES
CCOC(=O)/C=C/[C@@H](N)CC(=O)O [Compound 44, Asp ethyl vinyl ester tosyl salt]: NO
CC(C)(C)OC(=O)CC[C@H](NC(=O)OC(C)(C)C)C(=O)N[C@H](/C=C/S(C)(=O)=O)CC(=O)OC(C)(C)C: NO
CS(=O)(=O)/C=C/[C@H](CC(=O)O)NC(=O)[C@@H](N)CCC(=O)O: YES

Hello, I need to know if CC(C)[C@H](NC(=O)OCc1ccccc1)C(=O)N[C@H](/C=C/S(C)(=O)=O)CC(=O)O has measured inhibition at 10 µM not below 10%. Thanks!
NO

Can CC(C)(C)[C@H](NC(=O)[C@H](CC(=O)O)NC(=O)OCc1ccccc1)C(=O)N1CCCC1C(=O)N[C@H](/C=C/S(C)(=O)=O)CC(=O)O (stereo in doubt) be said to have inhibition at 10 µM at or above 10%?
YES

Please indicate if the recorded inhibition at 10 µM for CC(C)(C)[C@H](NC(=O)c1ccc2ncccc2c1)C(=O)N1CCCC1C(=O)N[C@H](/C=C/S(C)(=O)=O)CC(=O)O (stereo in doubt) meets or exceeds 10%.
YES
